The reported measurements were obtained from the supplement of paper PMC12350171.

Test system: S. enterica typhimurium tolC KO
Experiment: growth AUC normalised to DMSO control (median) (fraction of control); higher = less growth inhibition, active = hit call of the paper
Recorded conditions: 20 µM
Structures can show the parent of a compound that is named as a salt.
Assay endpoint: growth AUC normalised to DMSO control
Enter the number alone.

The examples below pair each entry with its known result.
>  <Compound>
CCCc1nc2c(C)cc(-c3nc4ccccc4n3C)cc2n1Cc1ccc(-c2ccccc2C(=O)O)cc1 [Telmisartan]

>  <Recorded result>
0.995

$$$$
>  <Compound>
CCc1oc2ccccc2c1C(=O)c1cc(Br)c(O)c(Br)c1 [Benzbromarone]

>  <Recorded result>
0.925

$$$$
>  <Compound>
CNCC[C@@H](Oc1ccccc1C)c1ccccc1 [Tomoxetine hydrochloride]

>  <Recorded result>
0.974

$$$$

Short answer please: growth AUC normalised to DMSO control, S. enterica typhimurium tolC KO, entry CN(C)CCCC1(c2ccc(F)cc2)OCc2cc(C#N)ccc21 (stereo not drawn) [Citalopram hydrobromide] 0.991

Okay, and O=C1OCCN1/N=C/c1ccc([N+](=O)[O-])o1 [Furazolidone] ? 0.609

----------
Test system: S. enterica typhimurium tolC KO
Experiment: growth AUC normalised to DMSO control (median) (fraction of control); higher = less growth inhibition, active = hit call of the paper
Recorded conditions: 20 µM
Where a name gives a salt, the structure may show the parent alone.
Assay endpoint: growth AUC normalised to DMSO control
Answer using only a numeral; do not append any unit.

For orientation, consider the following solved cases.
>  <Compound>
O=c1[nH]c(=O)n([C@H]2C[C@H](O)[C@@H](CO)O2)cc1/C=C/Br [Brivudine]

>  <Recorded result>
1.01

$$$$
>  <Compound>
CCCN1CCCC[C@H]1C(=O)Nc1c(C)cccc1C [Ropivacaine hydrochloride]

>  <Recorded result>
1

$$$$
>  <Compound>
COc1c2occc2c(OC)c2c(=O)cc(C)oc12 [Khellin]

>  <Recorded result>
0.985

$$$$
>  <Compound>
Cc1c(C)c2c(c(C)c1O)CCC(C)(C(=O)O)O2 (stereo not drawn) [Trolox]

>  <Recorded result>
1

$$$$
>  <Compound>
COc1ccc2cc([C@H](C)C(=O)O)ccc2c1 [(S)-Naproxen]

>  <Recorded result>
0.998

$$$$
>  <Compound>
NC12CC3CC(CC(C3)C1)C2 [Adamantamine fumarate]

>  <Recorded result>
0.996

$$$$
>  <Compound>
CCCCC(=O)N(Cc1ccc(-c2ccccc2-c2nnn[nH]2)cc1)[C@H](C(=O)O)C(C)C [Valsartan]

>  <Recorded result>
1.02

$$$$
>  <Compound>
CC(C)[C@H](N)C(=O)OCC(CO)OCn1cnc2c(=O)nc(N)[nH]c21 (stereo partly drawn) [Valganciclovir hydrochloride]

>  <Recorded result>
1

$$$$
>  <Compound>
CCN(CC)CCNC(=O)c1cc(Br)c(N)cc1OC [Bromopride]

>  <Recorded result>
1.01

$$$$
>  <Compound>
CC(=O)Nc1ccc(OC(=O)c2ccccc2O)cc1 [Acetaminosalol]

>  <Recorded result>
0.937

$$$$

For the compound shown here, CC(=O)SCC(Cc1ccccc1)C(=O)NCC(=O)OCc1ccccc1 (stereo not drawn) [Racecadotril] , give the reported growth AUC normalised to DMSO control. 0.963

What do you have for CC=CC1=C(C(=O)O)N2C(=O)[C@@H](NC(=O)[C@H](N)c3ccc(O)cc3)[C@H]2SC1 [Cefprozil] ? 0.983

Note, next up: NC(=O)c1cnccn1 [Pyrazinamide] 0.999

Can you check CNC(=O)OCc1cccc(COC(=O)NC)n1 [Pyricarbate] next? 0.999

Then this compound: COc1cc(N)cn[n+]1-c1ccccc1 [Amezinium metilsulfate] 1

----------
Test system: Shigella flexneri
Experiment: growth AUC normalised to DMSO control (fraction of control); higher = less growth inhibition, active = hit call of the paper
Recorded conditions: 20 µM
Structures can show the parent of a compound that is named as a salt.
Entries and their measured growth AUC normalised to DMSO control follow.
Write the number on its own, no unit after it.

>  <Compound>
Oc1c(Cl)cc(Cl)c2cccnc12 [Chloroxine]

>  <growth AUC normalised to DMSO control>
0.884

$$$$
>  <Compound>
CCC(=O)OCC(=O)[C@@]1(OC(=O)CC)[C@H](C)C[C@H]2[C@H]3[C@H]([C@@H](O)C[C@@]21C)[C@@]1(C)C=CC(=O)C=C1C[C@H]3Cl [Alclometasone dipropionate]

>  <growth AUC normalised to DMSO control>
0.974

$$$$
>  <Compound>
Clc1cc(Cl)c(OCC#CI)cc1Cl [Haloprogin]

>  <growth AUC normalised to DMSO control>
1.02

$$$$
>  <Compound>
C[C@H]1O[C@@H](O[C@H]2[C@@H](O)C[C@H](O[C@H]3[C@@H](O)C[C@H](O[C@H]4CC[C@@]5(C)[C@H](CC[C@@H]6[C@@H]5C[C@@H](O)[C@]5(C)[C@@H](C7=CC(=O)OC7)CC[C@]65O)C4)O[C@@H]3C)O[C@@H]2C)C[C@H](O)[C@@H]1O [Digoxin]

>  <growth AUC normalised to DMSO control>
0.945

$$$$
>  <Compound>
CC[C@H]1OC(=O)[C@H](C)[C@@H](O[C@H]2C[C@@](C)(OC)[C@@H](O)[C@H](C)O2)[C@H](C)[C@@H](O[C@@H]2O[C@H](C)C[C@H](N(C)C)[C@H]2O)[C@](C)(O)C[C@@H](C)/C(=N\OCOCCOC)[C@H](C)[C@@H](O)[C@]1(C)O [Roxithromycin]

>  <growth AUC normalised to DMSO control>
0.82

$$$$

Any idea what growth AUC normalised to DMSO control was measured for C#C[C@]1(O)CC[C@H]2[C@@H]3CCc4cc(OC)ccc4[C@H]3CC[C@@]21C [Mestranol] ? 1.01

Field entry: C#CCN(C)Cc1ccccc1 [Pargyline hydrochloride] 1.03

----------
System: S. enterica typhimurium WT
Experiment: growth AUC normalised to DMSO control (median) (fraction of control); higher = less growth inhibition, active = hit call of the paper
Recorded conditions: 20 µM
Counter-ions that a name gives are not always drawn.
The entries below come with measured growth AUC normalised to DMSO control values attached.
Number, no unit, nothing else.

>  <Molecule>
CCN(CC)CCNC(C(=O)OCCC(C)C)c1ccccc1 (stereo not drawn) [Camylofine chlorhydrate]

>  <growth AUC normalised to DMSO control>
1

$$$$

From here, focus on the item given below.
Param item = Cc1ccc(N(CC2=NCCN2)c2cccc(O)c2)cc1 [Phentolamine hydrochloride] ; retrieve measured growth AUC normalised to DMSO control. 0.999

----------
Test system: Yersinia pseudotuberculosis
Experiment: growth AUC normalised to DMSO control (fraction of control); higher = less growth inhibition, active = hit call of the paper
Recorded conditions: 20 µM
Structures can show the parent of a compound that is named as a salt.
Pick one and only one: active, inactive

>  <Molecule>
CN(C)CCC=C1c2ccccc2CCc2ccccc21 [Amitryptiline hydrochloride]

>  <Experimental target>
Yersinia pseudotuberculosis

>  <Group>
inactive

$$$$

Any idea what this test logged for COc1ccc([C@@H]2Sc3ccccc3N(CCN(C)C)C(=O)[C@@H]2OC(C)=O)cc1 [Diltiazem hydrochloride] ? inactive

Further, for CCOC(=O)[C@H](CCc1ccccc1)N[C@@H](C)C(=O)N1Cc2ccccc2C[C@H]1C(=O)O [Quinapril hydrochloride] ? inactive

Please do the same for O=C1CCc2ccc(OCCCCN3CCN(c4cccc(Cl)c4Cl)CC3)cc2N1 [Aripiprazole] as well. inactive

// query: NCC[C@H](O)C(=O)N[C@@H]1C[C@H](N)[C@@H](O[C@H]2O[C@H](CN)[C@@H](O)[C@H](O)[C@H]2O)[C@H](O)[C@H]1O[C@H]1O[C@H](CO)[C@@H](O)[C@H](N)[C@H]1O [Amikacin hydrate] active

Param item: C#C[C@]1(O)CC[C@H]2[C@@H]3CCC4=C(CCC(=O)C4)[C@H]3CC[C@@]21C [Norethynodrel] inactive

Note, next up: O=C1OCCN1/N=C/c1ccc([N+](=O)[O-])o1 [Furazolidone] active

----------
// reported growth AUC normalised to DMSO control for each item listed
Test system: Shigella flexneri
Experiment: growth AUC normalised to DMSO control (fraction of control); higher = less growth inhibition, active = hit call of the paper
Recorded conditions: 20 µM
Structures can show the parent of a compound that is named as a salt.
Give only the figure.

>  <Compound>
C#Cc1cccc(Nc2ncnc3cc(OCCOC)c(OCCOC)cc23)c1

>  <Experimental target>
Shigella flexneri

>  <growth AUC normalised to DMSO control>
1.03

$$$$
>  <Compound>
Nc1nc(=O)c2nc(CNc3ccc(C(=O)N[C@@H](CCC(=O)O)C(=O)O)cc3)cnc2[nH]1

>  <Experimental target>
Shigella flexneri

>  <growth AUC normalised to DMSO control>
0.99

$$$$
>  <Compound>
C[N+]1(C)CCC(=C(c2ccccc2)c2ccccc2)CC1 [Diphemanil methylsulfate]

>  <Experimental target>
Shigella flexneri

>  <growth AUC normalised to DMSO control>
1.01

$$$$
>  <Compound>
O=C(O)CNC(=O)C(CS)Cc1ccccc1 (stereo not drawn)

>  <Experimental target>
Shigella flexneri

>  <growth AUC normalised to DMSO control>
1.05

$$$$
>  <Compound>
O=C(COc1ccc(Cl)cc1)N1CCN(Cc2ccc3c(c2)OCO3)CC1 [Fipexide hydrochloride]

>  <Experimental target>
Shigella flexneri

>  <growth AUC normalised to DMSO control>
0.971

$$$$
>  <Compound>
CCOC(=O)O[C@]1(C(=O)COC(=O)CC)CC[C@H]2[C@@H]3CCC4=CC(=O)C=C[C@]4(C)[C@H]3[C@@H](O)C[C@@]21C [Prednicarbate]

>  <Experimental target>
Shigella flexneri

>  <growth AUC normalised to DMSO control>
1.03

$$$$
>  <Compound>
CN(C)CCCN1c2ccccc2Sc2ccccc21 [Promazine hydrochloride]

>  <Experimental target>
Shigella flexneri

>  <growth AUC normalised to DMSO control>
0.945

$$$$

# context switch: different compound, same growth AUC normalised to DMSO control
Form field: reported growth AUC normalised to DMSO control of O=C(CCCN1CCC(O)(c2ccc(Cl)cc2)CC1)c1ccc(F)cc1 0.966
